Assay notes: Haemolytic activity in mouse RBC at 6 uM incubated for 1 hr relative to control
Format: ADME, cell-based, Erythrocyte
Conditions used: mouse red blood cells (erythrocytes), read-out: Activity
Measure name: hemolysis at 1 h, 6 µM (%)
Only the number, expressed in %, is required.

// query Please report the measured hemolysis at 1 h, 6 µM for C[C@@H]1[C@H](O)[C@@H](C)/C=C/C=C/C=C/C=C/C=C/C=C/C=C/[C@H](O[C@@H]2O[C@H](C)[C@@H](O)[C@H](N)[C@@H]2O)C[C@@H]2O[C@](O)(C[C@@H](O)C[C@@H](O)[C@H](O)CC[C@@H](O)C[C@@H](O)CC(=O)O[C@H]1C)C[C@H](O)[C@H]2C(=O)O [AMPHOTERICIN B]
// result 50
